Origin of the recorded values: PubChem BioAssay AID1053197

- measuredTarget: Sialate O-acetylesterase (Homo sapiens) (UniProt Q9HAT2)
- Sequence (Q9HAT2 whole entry, looked up): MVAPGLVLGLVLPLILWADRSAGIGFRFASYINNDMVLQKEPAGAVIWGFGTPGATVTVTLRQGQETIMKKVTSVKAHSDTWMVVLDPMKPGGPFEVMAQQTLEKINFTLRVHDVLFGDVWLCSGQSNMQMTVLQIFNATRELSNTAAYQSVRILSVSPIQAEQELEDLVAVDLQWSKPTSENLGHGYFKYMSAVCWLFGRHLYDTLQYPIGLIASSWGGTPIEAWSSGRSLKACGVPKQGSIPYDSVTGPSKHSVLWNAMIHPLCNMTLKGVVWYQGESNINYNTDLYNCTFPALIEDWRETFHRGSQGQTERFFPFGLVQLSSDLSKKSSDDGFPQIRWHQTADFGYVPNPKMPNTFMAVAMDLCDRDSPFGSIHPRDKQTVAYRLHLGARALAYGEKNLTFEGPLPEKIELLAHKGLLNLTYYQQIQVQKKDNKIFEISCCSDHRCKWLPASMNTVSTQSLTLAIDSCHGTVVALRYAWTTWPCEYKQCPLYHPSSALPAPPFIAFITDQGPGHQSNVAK
- assayProcedure: blockers of sialate O-acetylesterase activity-probe labeling – biochemical, fluorescence polarization, FP-Rh probe, 1536-well HTS, primary screen (AID 1053197);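 further: 0% = plate median of compound wells and 100% = probe without SIAE protein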
- assayContext: SIAE FP-Rh probe binding, at 9.66 µM, hits give high values
Hit rate of the full screen: of about 370,000 compounds, about 2,600 (0.7%) were called active. The sample holds actives, similar compounds and a random draw of the others, so the mix is not that of the screen.
Listing of entries alongside the reported inhibition.
Give a bare numeral; the unit % is implied.

The examples below pair each entry with its known result.
>  <compound>
O=C(Nc1nc2ccc(Cl)cc2s1)c1cc(-c2ccc(Cl)cc2)nc2ccccc12

>  <inhibition (%)>
-3.74

$$$$
>  <compound>
NC(=O)Cc1ccc2sc(-c3ccccc3)nc2c1

>  <inhibition (%)>
5.29

$$$$
>  <compound>
COc1ccc(Cn2ccc3ccc(-c4ccc5ccn(Cc6ccccc6C)c5c4)cc32)cc1

>  <inhibition (%)>
1.75

$$$$
>  <compound>
COCC1CCN(C(=O)c2ccc3oc(Cc4ccccc4)nc3c2)C1 (stereo unspecified)

>  <inhibition (%)>
-5.51

$$$$
>  <compound>
O=C1CCC2(CCC(c3ccc(Cl)cc3)CC2)N1CCO (stereo unspecified)

>  <inhibition (%)>
6.92

$$$$

### Prompt May I ask what inhibition has been recorded for COC(=O)[C@]12C[C@H](CC(=O)NCc3cccc4ccccc34)C(=O)N(CCc3ccc(OC)c(OC)c3)C1=C[C@H](C1CCCC1)O[C@@H]2C ?
### Response -2.97

### Prompt Data request, read-out inhibition, for COC(=O)[C@]1(C#N)CC(=O)N(CC2CCCCC2)[C@@H]1c1ccccc1
### Response 2.31

### Prompt Query (compound): O=C(CSc1nc2c(c(=O)[nH]1)CCCC2)N1CCCCC1 ; field requested: inhibition
### Response 1.16

### Prompt Given Cc1cccc(C)c1NC(=O)COC(=O)c1c(C)nn(-c2ccccc2)c1C , state its recorded inhibition.
### Response 2.02

### Prompt Would you kindly share the measured inhibition for Cc1ccc(Cn2cc(CN3[C@@H](CC(C)C)COc4ccc(Cl)cc4S3(=O)=O)nn2)cc1 ?
### Response 1.1

### Prompt May I ask what inhibition has been recorded for CCn1c2ccccc2c2cc(NC(=O)CSc3nnc(-c4ccccc4)n3-c3ccc(C)cc3)ccc21 ?
### Response 4.72

### Prompt inhibition for C[C@H]1[C@H](NC(=O)c2cccc(N(C)C)c2)CC[C@@]23CCCN2C(=O)CCC[C@@H]13 ?
### Response 0.13

### Prompt What does the record list as inhibition for CCC(Oc1ccccc1)C(=O)OCC(=O)Nc1c(C)nn(-c2ccccc2)c1C (stereo unspecified) ?
### Response 5.85

### Prompt Fill in: inhibition of COc1cccc(/C=N/Nc2cc(C)nc(-c3ccccc3O)n2)c1O is ___
### Response 18.5

### Prompt For the compound CCC(=O)OCCCN1C(=O)CCC12CCC(c1ccccc1)CC2 (stereo unspecified) , what inhibition is on record?
### Response 10.2

### Prompt Reported inhibition for Cc1ccc(OC(=O)c2c(C)nn(-c3ccccc3)c2C)cc1 : what is it?
### Response 5.09

### Prompt Param item = CCOc1cc(N2CCOCC2)c(OCC)cc1NC(=O)COc1cccc2cccnc12 ; retrieve measured inhibition.
### Response 25.5

### Prompt Please give the measured inhibition for this compound: CCC[C@H]1C(=O)CC[C@@]23CCCN2C(=O)CCC[C@@H]13
### Response -0.79

---

- measuredTarget: Sialate O-acetylesterase (Homo sapiens)
- assayProcedure: blockers of sialate O-acetylesterase activity-probe labeling – biochemical, fluorescence polarization, FP-Rh probe, 1536-well HTS, primary screen (AID 1053197);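 further: 0% = plate median of compound wells and 100% = probe without SIAE protein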
- assayContext: SIAE FP-Rh probe binding, at 9.66 µM, hits give high values
Hit rate of the full screen: of about 370,000 compounds, about 2,600 (0.7%) were called active. Many of the other results were omitted from the sample, so actives are more common in it than they were.
// inhibition lookup, one value per entry
Give just the number in %; leave the unit off.

>  <compound>
Cc1cccc(C2c3c(n(C)c(=O)n(C)c3=O)N=C3c4ccccc4C(=O)C32)c1 (stereo not drawn)

>  <inhibition / %>
17.7

$$$$
>  <compound>
COC(=O)C[C@@H]1CC[C@H]2[C@@H](COc3ccc(NS(=O)(=O)CC(F)(F)F)cc3C(=O)N2C)O1

>  <inhibition / %>
8.2

$$$$

As a next step, examine the compound that follows.
### Prompt Could you tell me which inhibition is on file for COc1ccc(C2C3=C(OC(C)=O)c4ccccc4C3=Nc3c2c(=O)n(C)c(=O)n3C)cc1 (stereo not drawn) ?
### Response 1.68

---

- measuredTarget: Sialate O-acetylesterase (Homo sapiens)
- assayProcedure: blockers of sialate O-acetylesterase activity-probe labeling – biochemical, fluorescence polarization, FP-Rh probe, 1536-well HTS, primary screen (AID 1053197);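 further: 0% = plate median of compound wells and 100% = probe without SIAE protein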
- assayContext: SIAE FP-Rh probe binding, at 9.66 µM, hits give high values
The campaign covered roughly 370,000 compounds. About 2,600 (0.7%) were called active. Shown is part of a subset that was picked to be rich in actives.
Items are presented alongside their recorded inhibition.
Write it as a number; the unit % goes unstated.

Please review the following examples before continuing.
>  <molecule>
O=C(N/N=C/c1ccc(O)c2ccccc12)c1cccnc1

>  <inhibition, %>
18.7

$$$$
>  <molecule>
O=C(O)/C(=C/c1cccnc1)NC(=O)c1ccccc1

>  <inhibition, %>
5.04

$$$$
>  <molecule>
CCOC(=O)c1cccc(NC(=O)CN(C)S(=O)(=O)c2ccc(-c3cocn3)s2)c1

>  <inhibition, %>
2.17

$$$$
>  <molecule>
CS(=O)(=O)N1CCN(C(=O)CSc2ccccc2)CC1

>  <inhibition, %>
-3.36

$$$$
>  <molecule>
COC(=O)C1CN(CC(C)C)CCS(=O)(=O)N1Cc1ccc(F)cc1 (stereo unspecified)

>  <inhibition, %>
-0.32

$$$$

### Prompt Test system Sialate O-acetylesterase (Homo sapiens); read-out inhibition; what value for O=C(NCc1cccs1)C1CCCN(S(=O)(=O)c2ccc([N+](=O)[O-])cc2)C1 (stereo unspecified) ?
### Response 3.31

### Prompt API: value(readout=inhibition, system=Sialate O-acetylesterase (Homo sapiens)) for record CCC(=O)N1CCC(C(N)=O)(N2CCCCC2)CC1
### Response -0.17

### Prompt Missing value: inhibition, Sialate O-acetylesterase (Homo sapiens), entry Cc1ccnc(NS(=O)(=O)c2ccc(NC(=O)c3ccc(S(=O)(=O)N4CCOCC4)cc3)cc2)n1 . Fill in?
### Response 21

### Prompt Please provide the recorded inhibition for Cc1ccnc(NS(=O)(=O)c2ccc(NC(=O)c3ccc(S(=O)(=O)N(C)C)cc3)cc2)n1 , tested on Sialate O-acetylesterase (Homo sapiens).
### Response -1.59

### Prompt # query: inhibition | item COc1ccc(Cn2cc(COC(=O)N(C)Cc3ccccc3)nn2)cc1 | system: Sialate O-acetylesterase (Homo sapiens)
### Response 0.99

### Prompt Sialate O-acetylesterase (Homo sapiens) / inhibition / C/C(=N\NC(N)=S)c1cccnc1 : value?
### Response 1.42

---

- measuredTarget: Sialate O-acetylesterase (Homo sapiens) (UniProt Q9HAT2)
- assayProcedure: blockers of sialate O-acetylesterase activity-probe labeling – biochemical, fluorescence polarization, FP-Rh probe, 1536-well HTS, primary screen (AID 1053197);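 further: 0% = plate median of compound wells and 100% = probe without SIAE protein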
- assayContext: SIAE FP-Rh probe binding, at 9.66 µM, hits give high values
Out of some 370,000 compounds screened, about 2,600 (0.7%) were called active. The list comes from a sample in which actives are over-represented; it also holds close analogues and randomly drawn compounds.
Here the recorded inhibition is given for each entry.

>  <compound>
COC(=O)c1cc(S(=O)(=O)N2CCN(c3ccccc3C)CC2)cn1C

>  <assayReadout>
inhibition

>  <dataValue>
2.1% (inactive)

$$$$
>  <compound>
O=S1(=O)c2ccc(Br)cc2OC[C@@H](Cc2ccccc2)N1Cc1cn(Cc2ccco2)nn1

>  <assayReadout>
inhibition

>  <dataValue>
-0.13% (inactive)

$$$$
>  <compound>
Cc1ccc(C2=CCN(C)C(=O)N2c2ccc(Cl)cc2)cc1

>  <assayReadout>
inhibition

>  <dataValue>
-0.37% (inactive)

$$$$
>  <compound>
C=CCN1C(=O)[C@@H](CC(=O)NCCCCc2ccccc2)[C@]2(C(=O)OCC)CCCCC/C=C/12

>  <assayReadout>
inhibition

>  <dataValue>
-2.6% (inactive)

$$$$
>  <compound>
CC1CCCCC1NC(=O)/C(C#N)=C/C=C/c1ccccc1[N+](=O)[O-] (configuration not stated)

>  <assayReadout>
inhibition

>  <dataValue>
17.2% (active)

$$$$
>  <compound>
CC(C)CNS(=O)(=O)CC1NCCc2ccccc21 (configuration not stated)

>  <assayReadout>
inhibition

>  <dataValue>
-2.16% (inactive)

$$$$
>  <compound>
CC(C)CNc1cccc2c1S(=O)(=O)N(Cc1cn(Cc3ccc(Cl)cc3)nn1)Cc1ccccc1O2

>  <assayReadout>
inhibition

>  <dataValue>
3.21% (inactive)

$$$$
>  <compound>
Cc1ccc(-n2c(SCC(=O)Nc3cccc4ccccc34)nnc2-c2ccco2)cc1

>  <assayReadout>
inhibition

>  <dataValue>
-4.95% (inactive)

$$$$

### Prompt For the compound CCn1c(SC)nc(O)c(C(c2ccc(OC)c(O)c2)c2c(O)nc(SC)n(CC)c2=O)c1=O , what inhibition is on record?
### Response 26.7% (active)

### Prompt Quick one: inhibition for C=CCn1c(SCC(N)=O)nnc1-c1ccccc1OC ?
### Response -7.56% (inactive)

### Prompt Recorded inhibition for COC(=O)C1CN(CCc2ccccc2)CCS(=O)(=O)N1Cc1ccc(F)cc1 (configuration not stated) , please?
### Response 4.17% (inactive)

### Prompt Returns the measured inhibition for the input compound. Input: CCOC(=O)C(=O)N(Cc1ccccc1)c1ccccc1C(=O)Nc1cc(OC)ccc1OC
### Response -7.2% (inactive)

### Prompt Which inhibition value is on record for CCn1c(SCC(C)=O)nc2sc3c(c2c1=O)CCCC3 ?
### Response 0.4% (inactive)

### Prompt Which inhibition value is on record for Cc1ccc(N2C(=O)C3N=NN(CC(=O)N4N=C(c5cccc6ccccc56)CC4c4ccccc4)C3C2=O)cc1 (configuration not stated) ?
### Response -11.7% (inactive)

### Prompt Look at this compound and give its reported inhibition. C[C@H](C(=O)N(C)c1ccccc1)[C@@H](O)c1ccc2ccccc2c1
### Response 3.1% (inactive)

### Prompt Which inhibition is reported for this compound? C/C(N)=C(/C#N)C(=O)COC(=O)C1=NN(c2ccccc2)C(=O)CC1
### Response 0.03% (inactive)

### Prompt // inhibition lookup, key: CCOC(=O)C1=C(O)/C(=C/c2ccc(OCC(=O)Nc3ccc(C)cc3)cc2)N=C1C
### Response -21.7% (inactive)

### Prompt Fill in the blank: the reported inhibition of O=c1[nH]n(-c2ccc([N+](=O)[O-])cc2)c(=O)c2ccccc12 is ____.
### Response 31.2% (active)

### Prompt Which inhibition is listed for O=S1(=O)c2c(cccc2N2CC[C@H](O)C2)O[C@@H]2CCN1C2 ?
### Response 6.21% (inactive)

### Prompt Item CC(c1ccc(N)cc1)c1cn(C)c2ccccc12 (configuration not stated) has what recorded inhibition?
### Response 10.7% (inactive)

### Prompt Please look up its inhibition: Cc1ccc2c(c1)C1CN(C)CCC1N2C(=O)c1ccccc1NS(=O)(=O)c1ccc(F)cc1C (configuration not stated)
### Response -4.94% (inactive)

### Prompt Reported inhibition, compound CCCC[C@H](C(=O)N(CC)c1ccccc1)[C@@H](O)c1ccc2ccccc2c1 : ____
### Response -0.99% (inactive)

### Prompt # query: inhibition of entry Cn1c(NN)nc2sc3c(c2c1=O)CCC3
### Response 41.8% (active)

### Prompt Dear colleague, I am looking for the recorded inhibition of the following compound: O=C(CSc1nnc(COc2ccccc2)n1-c1ccc(Cl)cc1)Nc1ccc2c(c1)OCO2
### Response -2.77% (inactive)

### Prompt GET /values?readout=inhibition&item= Oc1ccccc1C1=NN(c2ccccc2)C(c2ccccc2)C1 (configuration not stated)
### Response 20.5% (active)

### Prompt What value of inhibition has been recorded for this entry: COC(=O)[C@]12C[C@H](CC(=O)NCc3cccs3)C(=O)N(CCc3ccc(OC)c(OC)c3)C1=C[C@H](C(C)C)O[C@@H]2C1CC1
### Response 9.66% (inactive)

### Prompt Using the record for COc1ccccc1OCC(=O)OCn1c(SC)nnc(C)c1=O , report its inhibition.
### Response -6.49% (inactive)

### Prompt Which inhibition is listed for Cc1ccc(NC(=O)Cc2cccc(F)c2)c(S(=O)(=O)N2CCOCC2)c1 ?
### Response -2.62% (inactive)

### Prompt Need inhibition, item C=CCN1C(=O)[C@@H](CC(=O)NCCCOCCCC)[C@]2(C(=O)OCC)CCCCC/C=C/12
### Response -0.48% (inactive)

### Prompt I'd like to know its inhibition. The compound in question is O=C(NCc1cccs1)C1CCN(S(=O)(=O)c2ccccc2[N+](=O)[O-])CC1
### Response -0.55% (inactive)

### Prompt Look at this compound and give its reported inhibition. Cc1ccc2c(c1)C1CN(C)CCC1N2C(=S)Nc1ccc(Cl)cc1Cl (configuration not stated)
### Response -1.14% (inactive)
